biological target: Human DR5 (Homo sapiens, UniProt O14763); assay: Binding affinity of antibody to human DR5 (BIAcore, CM5 chip); conditions: equilibrium dissociation constant, Human DR5
measurement-name: Kd (nM)

molecule: DA17: humanized or deimmunized variant of parental clone D0; CDRs SEQ ID NO 1, 2, 7 / 4, 12, 13 (antibody, V domains shown) VH: EVQLVESGGGLVQPGGSLRLSCAASGFTFSSFNMLWVRQAPGKGLEWVAGIGKSDRYTGYGSAVKGRFTISRDDSKSTVYLQMNSLRAEDTAVYYCVRDAGSGCGSGGWTGACIDTWGQGTLVTVSS VL: DIQMTQSPSSLSASVGDRVTITCSGGDSYAGSYYYGWYQQKPGKAPKTLIYNNNNKAKGVPSRFSGSRSGTDFTLTISSLQPEDFATYYCGSRDSSYVGIFGQGTKVEIK
quantitative-result: 0.0235
//
molecule: DA15: humanized or deimmunized variant of parental clone D0; CDRs SEQ ID NO 1, 2, 7 / 4, 10, 15 (antibody, V domains shown) VH: EVQLVESGGGLVQPGGSLRLSCAASGFTFSSFNMLWVRQAPGKGLEWVAGIGKSDRYTGYGSAVKGRFTISRDTSKNTAYLQMNSLRAEDTAVYYCSRDAGSGCGSGGWTGACIDTWGQGTLVTVSS VL: DIQMTQSPSSLSASVGDRVTITCSGGDSYAGSYYYGWYQQKPGKAPKTLIYNNNNRPSGVPSRFSGSRSGTDFTLTISSLQPEDFATYYCGSRDSDGGGRFGQGTKVEIK
quantitative-result: 0.00109
